- experimental_system: CYP11A1 (Homo sapiens, UniProt P05108)
- Construct: human H295R adrenocortical carcinoma cell line was used as source of enzyme; endogenous in cells
- protocol_summary: CYP11A1 inhibition, isocaproic acid release assay (IARA) in H295R cells
- condition: human H295R adrenocortical carcinoma cell line, three days, 3 nM [24,25-3H]-labelled cholesterol; read-out: IC50 on CYP11A1 inhibition (Group)
observable: IC50

Use the examples below as a reference point.
Request: Observed IC50 on CYP11A1 (Homo sapiens, UniProt P05108) for CCS(=O)(=O)c1ccc(COc2ccc(CN3Cc4ccccc4C3)cc2S(C)(=O)=O)cc1 , please.
Result: < 100 nM

Request: Find the measured IC50: item CC[S@](=N)(=O)c1ccc(COc2ccc(CN3Cc4ccccc4C3)cc2S(C)(=O)=O)cc1 , target or system CYP11A1 (Homo sapiens, UniProt P05108).
Result: < 100 nM

Request: Tell me reported IC50 for O=c1cc(CN2CCc3ccccc3C2)occ1OCC1CC2(C1)CN(c1ncccn1)C2 , tested with CYP11A1 (Homo sapiens, UniProt P05108).
Result: 201 to 2000 nM

Here is another molecule to look at.
Request: Form: Entry = CS(=O)(=O)c1cc(CN2Cc3ccc(-c4cncs4)cc3C2)ccc1OCC1CCN(S(C)(=O)=O)CC1 | System = CYP11A1 (Homo sapiens, UniProt P05108) | IC50 = ____
Result: < 100 nM

---

- experimental_system: recombinant human cytochrome P450 (CYP) CYP3A4 enzyme (Homo sapiens)
- protocol_summary: Formation of reactive metabolites, trapping with GSH, KCN and SCA
- condition: test compound 10 μM, recombinant human CYP3A4, NADPH, 1 hour, pH 7.4
observable: Number of SCA trapped metabolites

Some compounds with known Number of SCA trapped metabolites results, for comparison:
Request: Requested read-out: Number of SCA trapped metabolites. Entry: CS(=O)(=O)c1cc(CN2Cc3ccc(-c4nnco4)cc3C2)ccc1OCC1CCN(S(C)(=O)=O)CC1
Result: 2 (trace)

Request: Which Number of SCA trapped metabolites value belongs to CS(=O)(=O)N1CCC(COc2coc(CN3Cc4ccc(-c5cnco5)cc4C3)cc2=O)CC1 ?
Result: 3 (trace)

Request: Endpoint output: Number of SCA trapped metabolites of CS(=O)(=O)N1CCC(COc2coc(CN3Cc4ccc(-n5cccn5)cc4C3)cc2=O)CC1 . Value?
Result: 1 (trace)

Request: Report Number of SCA trapped metabolites for C[C@H](c1cc(=O)c(OCC2CCN(S(C)(=O)=O)CC2)co1)N1Cc2ccccc2[C@H]2C[C@H]21 (relative stereo) [Compound 24b] please.
Result: 0

Others:
Request: Can you look up the measured Number of SCA trapped metabolites of CC(O)c1ccc2c(c1)CN(Cc1cc(=O)c(OCC3CCN(S(C)(=O)=O)CC3)co1)C2 (centres unmarked) for me?
Result: 3 (trace)

---

- experimental_system: CYP11A1 (Homo sapiens, UniProt P05108)
- Construct: human H295R adrenocortical carcinoma cell line was used as source of enzyme; endogenous in cells
- protocol_summary: CYP11A1 inhibition, isocaproic acid release assay (IARA) in H295R cells
- condition: human H295R adrenocortical carcinoma cell line, three days, 3 nM [24,25-3H]-labelled cholesterol; read-out: IC50 on CYP11A1 inhibition (Group)
observable: IC50

The cases that follow already have their IC50 on record.
Request: API: value(readout= IC50, system= CYP11A1 (Homo sapiens, UniProt P05108), query= CCS(=O)(=O)c1cc(CN2Cc3ccc(C(F)(F)F)cc3C2)ccc1OCC1CCN(S(C)(=O)=O)CC1 )
Result: < 100 nM

Request: Request body: readout IC50, system CYP11A1 (Homo sapiens, UniProt P05108), query CC(C)(O)c1ccc(COc2ccc(CN3Cc4ccccc4C3)cc2S(C)(=O)=O)cc1 . Return the value.
Result: < 100 nM

Request: For CYP11A1 (Homo sapiens, UniProt P05108), provide IC50 of CS(=O)(=O)c1cc(CN2Cc3ccc(-c4cnco4)cc3C2)ccc1OCC1CCN(S(C)(=O)=O)CC1 [Compound 13a] please.
Result: 101 to 200 nM

API: the following record is the query input.
Request: // fetch CYP11A1 (Homo sapiens, UniProt P05108) IC50 for CC(C)(C)OC(=O)N1CCC2(CC1)CC(COc1coc(CN3CCc4ccccc4C3)cc1=O)C2
Result: 201 to 2000 nM

---

- experimental_system: CYP11A1 (Homo sapiens, UniProt P05108)
- Construct: human H295R adrenocortical carcinoma cell line was used as source of enzyme; endogenous in cells
- Sequence (P05108 40-521): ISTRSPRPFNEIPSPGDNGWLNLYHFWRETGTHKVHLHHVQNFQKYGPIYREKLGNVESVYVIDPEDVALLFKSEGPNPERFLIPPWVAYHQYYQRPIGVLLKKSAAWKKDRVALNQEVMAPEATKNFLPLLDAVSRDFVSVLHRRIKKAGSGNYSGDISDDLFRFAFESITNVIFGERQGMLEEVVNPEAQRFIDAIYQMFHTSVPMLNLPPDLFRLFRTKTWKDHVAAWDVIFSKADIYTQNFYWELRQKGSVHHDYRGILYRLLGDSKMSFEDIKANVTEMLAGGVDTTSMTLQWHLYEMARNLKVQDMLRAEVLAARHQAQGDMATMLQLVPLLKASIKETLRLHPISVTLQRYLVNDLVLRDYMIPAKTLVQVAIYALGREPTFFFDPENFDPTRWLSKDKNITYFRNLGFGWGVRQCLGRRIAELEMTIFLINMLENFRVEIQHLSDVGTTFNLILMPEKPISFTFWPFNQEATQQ
- protocol_summary: CYP11A1 inhibition, isocaproic acid release assay (IARA) in H295R cells
- condition: human H295R adrenocortical carcinoma cell line, three days, 3 nM [24,25-3H]-labelled cholesterol; read-out: IC50 on CYP11A1 inhibition (Group)
- Method: The ability of the test compounds to inhibit conversion of cholesterol to pregnenolone and isocaproic acid was measured by modification of isocaproic acid release assay (IARA) described by Ruangwises et al. (Biology of Reproduction 1991; 45(1):143-50) except that human H295R adrenocortical carcinoma cell line was used as source of enzyme and extraction was done with dextran-coated charcoal suspension (Isomaa, V. et al., Endocrinology 1982; 111(3):833-843). […]
Hi there, I'd appreciate the recorded IC50 for every entry that follows.

Request: For CS(=O)(=O)N1CCC(COc2coc(CN3Cc4ccc(-c5cnco5)cc4C3)cc2=O)CC1 [Compound 2] , what is its reported IC50?
Result: 101 to 200 nM

Request: For the compound shown here, CS(=O)(=O)c1cc(CN2Cc3ccccc3C2)ccc1OCc1ccc([S@@](C)(=N)=O)cc1 [Compound 96] , give the reported IC50.
Result: < 100 nM

Request: What does the data say about its IC50? Entry: CS(=O)(=O)N1CCC(COc2coc(CN3Cc4ccc(-c5nnco5)cc4C3)cc2=O)CC1 [Compound 1]
Result: 101 to 200 nM

Request: Tell me the measured IC50 of CN(C)C(=O)C1CCC(COc2ccc(CN3Cc4ccccc4C3)cc2S(C)(=O)=O)CC1 (stereo not shown) [Compound 74] , please.
Result: < 100 nM

Request: GET /values?readout=IC50&item= CS(=N)(=O)c1ccc(COc2ccc(CN3Cc4ccccc4C3)cc2S(C)(=O)=O)cc1 (stereo not shown) [Compound 72]
Result: < 100 nM

Request: Returns the measured IC50 for the input compound. Input: CS(=O)(=O)c1cc(CN2Cc3ccccc3C2)ccc1OCC1CCC(C(=O)N2CCC2)CC1 (stereo not shown) [Compound 80]
Result: 101 to 200 nM

Request: # input compound: CS(=O)(=O)N1CCC(COc2coc(CN3Cc4ccc(-c5ccno5)cc4C3)cc2=O)CC1 [Compound 4] ; wanted: its IC50
Result: 101 to 200 nM

Request: Can you look up the measured IC50 of CS(=N)c1ccc(COc2ccc(CN3Cc4ccccc4C3)cc2S(C)(=O)=O)cc1 (stereo not shown) [Compound 84] for me?
Result: < 100 nM

Request: Form field: reported IC50 of CS(=O)(=O)c1cc(C(N2Cc3ccccc3C2)C(F)(F)F)ccc1OCC1CCN(S(C)(=O)=O)CC1 (stereo not shown) [Compound 21]
Result: 101 to 200 nM

Request: For CS(=O)(=O)N1CCC(COc2coc(CN3Cc4ccc(-n5cccn5)cc4C3)cc2=O)CC1 [Compound 7] , what is its reported IC50?
Result: 101 to 200 nM

// for each compound below, give its IC50
1. CC(=O)c1ccc2c(c1)CN(Cc1cc(=O)c(OCC3CCN(S(C)(=O)=O)CC3)co1)C2 [Compound 89]
2. CS(=O)(=O)N1CCC(COc2coc(CN3Cc4ccc(-c5ccon5)cc4C3)cc2=O)CC1 [Compound 5]
3. CC(=O)[C@H]1CC[C@H](COc2ccc(CN3Cc4ccccc4C3)cc2S(C)(=O)=O)CC1 [Compound 67]
4. CS(=O)(=O)c1cc(CN2Cc3ccccc3C2)ccc1OCC1CCN(S(=O)(=O)C2COC2)CC1 [Compound 75]
5. CC(C)(O)c1ccc(COc2coc(CN3Cc4ccccc4C4(CCCC4)C3)cc2=O)cc1 [Compound 104]
6. CC(C)C(=O)N1CCC(COc2ccc(CN3Cc4ccccc4C3)cc2S(C)(=O)=O)CC1 [Compound 73]

Result:
["< 100 nM", "< 100 nM", "< 100 nM", "< 100 nM", "101 to 200 nM", "< 100 nM"]
